# system: T1, human IL-18R alpha/beta pair (IL-18Rab) (human, UniProt Q13478 19-329; O95256 20-356)
# T1 construct: also called hu IL-18Rab
# T1 sequence (looked up) 1: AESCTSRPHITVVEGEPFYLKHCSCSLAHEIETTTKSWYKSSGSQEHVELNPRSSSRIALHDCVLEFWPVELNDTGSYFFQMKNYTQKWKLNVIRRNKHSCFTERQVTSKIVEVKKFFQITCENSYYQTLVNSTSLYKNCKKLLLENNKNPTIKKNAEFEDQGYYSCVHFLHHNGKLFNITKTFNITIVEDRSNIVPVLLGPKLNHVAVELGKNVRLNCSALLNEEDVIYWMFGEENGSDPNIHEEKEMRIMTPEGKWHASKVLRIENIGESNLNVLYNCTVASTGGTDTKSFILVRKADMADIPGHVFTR
# T1 sequence (looked up) 2: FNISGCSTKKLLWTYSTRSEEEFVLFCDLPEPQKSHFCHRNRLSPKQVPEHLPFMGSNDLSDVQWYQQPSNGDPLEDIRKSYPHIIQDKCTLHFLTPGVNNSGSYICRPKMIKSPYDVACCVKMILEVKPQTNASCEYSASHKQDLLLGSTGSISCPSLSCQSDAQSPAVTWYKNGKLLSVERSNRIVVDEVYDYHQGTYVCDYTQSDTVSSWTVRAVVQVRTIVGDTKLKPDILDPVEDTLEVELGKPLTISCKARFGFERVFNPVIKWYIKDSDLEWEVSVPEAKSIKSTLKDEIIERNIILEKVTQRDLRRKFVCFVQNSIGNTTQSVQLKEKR
# procedure text: Octet BLI
Please go through the items and note down their Kd.
Value expressed in nM; do not type the unit.

Answer with the recorded Kd of IL-18 variant G3V, E6K, K53A (ligand, also called G3V, K53A, E6K) YFVKLKSKLSVIRNLNDQVLFIDQGNRPLFEDMTDSDMRDNAPRTIFIISMYADSQPRGMAVTISVKSEKISTLSSENKIISFKEMNPPDNIKDTKSDIIFFQRSVPGHDNKMQFESSSYEGYFLASEKERDLFKLILKKEDELGDRSIMFTVQNED only.
0.27

Complete the entry with Kd for IL-18 variant G3V, M60K, D157E (ligand) YFVKLESKLSVIRNLNDQVLFIDQGNRPLFEDMTDSDMRDNAPRTIFIISMYKDSQPRGKAVTISVKSEKISTLSSENKIISFKEMNPPDNIKDTKSDIIFFQRSVPGHDNKMQFESSSYEGYFLASEKERDLFKLILKKEDELGDRSIMFTVQNEE
0.13

Answer with reported Kd of IL-18 variant G3T, M60K, D157E (ligand) YFTKLESKLSVIRNLNDQVLFIDQGNRPLFEDMTDSDMRDNAPRTIFIISMYKDSQPRGKAVTISVKSEKISTLSSENKIISFKEMNPPDNIKDTKSDIIFFQRSVPGHDNKMQFESSSYEGYFLASEKERDLFKLILKKEDELGDRSIMFTVQNEE
0.1
